Tested on: 997726-040-R-J2-PDC tumor spheroids, viability
Assay: Anticancer human tumor 997726-040-R-J2-PDC patient-derived squamous cell lung carcinoma cell line growth inhibition [PI3K]
Details: second compound 1 µM; first compound 3.16 µM; active compounds read low; spheroids with HUVEC and MSC
Mark Condition met only for viability, T/C values smaller than 30%; exact matches and larger values are Condition not met.

>  <compound>
CC(C)NCC(C(=O)N1CCN(c2ncnc3c2C(C)CC3O)CC1)c1ccc(Cl)cc1 (stereo unspecified) + COc1c(OCCCN2CCOCC2)ccc2c3n(c(=NC(=O)c4cnc(N)nc4)nc12)CCN3

>  <target or test system>
997726-040-R-J2-PDC tumor spheroids, viability

>  <answer label>
Condition met

$$$$
>  <compound>
CC(Cn1ccc(-c2ccc(C#N)c(Cl)c2)n1)NC(=O)c1cc(C(C)O)[nH]n1 (stereo unspecified) + CC(Nc1ncnc2nc[nH]c12)c1cc2cccc(Cl)c2c(=O)n1-c1ccccc1

>  <target or test system>
997726-040-R-J2-PDC tumor spheroids, viability

>  <answer label>
Condition not met

$$$$
>  <compound>
Cn1ncc(Cl)c1-c1cc(C(=O)NC(CN)Cc2cccc(F)c2)sc1Cl (stereo unspecified) + COc1c(OCCCN2CCOCC2)ccc2c3n(c(=NC(=O)c4cnc(N)nc4)nc12)CCN3

>  <target or test system>
997726-040-R-J2-PDC tumor spheroids, viability

>  <answer label>
Condition met

$$$$

A record lists C[C@@H](NC(=O)c1ncnc(N)c1Cl)c1ncc(C(=O)Nc2cc(C(F)(F)F)c(Cl)cn2)s1 + CC(Nc1ccc2c(c1)OCCn1cc(N3C(=O)OCC3C(F)F)nc1-2)C(N)=O . Is its viability, T/C below 30%?
Condition not met

Is it true that viability, T/C reported for CNC(=O)c1ccc(N2C(=S)N(c3ccc(C#N)c(C(F)(F)F)c3)C(=O)C2(C)C)cc1F + CC(Nc1ccc2c(c1)OCCn1cc(N3C(=O)OCC3C(F)F)nc1-2)C(N)=O is less than 30%?
Condition met

Please state whether viability, T/C is below 30% for CC1(C)CCC(Nc2ncc(C(F)(F)F)c(-c3c[nH]c4c(P(C)(C)=O)c(C#N)ccc34)n2)CN1 (stereo unspecified) + CC(Nc1ncnc2nc[nH]c12)c1cc2cccc(Cl)c2c(=O)n1-c1ccccc1
Condition not met

----------
Tested on: 997726-040-R-J2-PDC tumor spheroids, viability
Assay: Anticancer human tumor 997726-040-R-J2-PDC cell line growth inhibition [PI3K];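 also: spheroids exposed to compounds for seven days before readout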
Details: second compound 3.16 µM; first compound 0.00316 µM; active compounds read low; spheroids with HUVEC and MSC
Provide the reported viability, T/C of each item.
Answers are plain numbers, in %.

>  <compound>
CC(C)n1nc(-c2ccc3oc(N)nc3c2)c2c(N)ncnc21 + Cc1nc(NC(=O)N2CCCC2C(N)=O)sc1-c1ccnc(C(C)(C)C(F)(F)F)c1

>  <quantity name>
viability, T/C

>  <units>
%

>  <numeric readout>
27.9

$$$$
>  <compound>
CC(C)n1nc(-c2ccc3oc(N)nc3c2)c2c(N)ncnc21 + CC(Nc1ncnc2nc[nH]c12)c1cc2cccc(Cl)c2c(=O)n1-c1ccccc1

>  <quantity name>
viability, T/C

>  <units>
%

>  <numeric readout>
53.2

$$$$

Then this compound:
Here CCN1CCN(Cc2ccc(Nc3ncc(F)c(-c4cc(F)c5nc(C)n(C(C)C)c5c4)n3)nc2)CC1 + CC(Nc1ncnc2nc[nH]c12)c1cc2cccc(Cl)c2c(=O)n1-c1ccccc1 was tested on 997726-040-R-J2-PDC tumor spheroids, viability, and its viability, T/C came to 70.7
